Cited source: patent US8697705B2

Target: Recombinant human liver GK1 (GST-GK) (Homo sapiens, UniProt P35557)
Construct: made in house; host or cells: E. coli
Sequence (P35557 1-466 isoform P35557-2): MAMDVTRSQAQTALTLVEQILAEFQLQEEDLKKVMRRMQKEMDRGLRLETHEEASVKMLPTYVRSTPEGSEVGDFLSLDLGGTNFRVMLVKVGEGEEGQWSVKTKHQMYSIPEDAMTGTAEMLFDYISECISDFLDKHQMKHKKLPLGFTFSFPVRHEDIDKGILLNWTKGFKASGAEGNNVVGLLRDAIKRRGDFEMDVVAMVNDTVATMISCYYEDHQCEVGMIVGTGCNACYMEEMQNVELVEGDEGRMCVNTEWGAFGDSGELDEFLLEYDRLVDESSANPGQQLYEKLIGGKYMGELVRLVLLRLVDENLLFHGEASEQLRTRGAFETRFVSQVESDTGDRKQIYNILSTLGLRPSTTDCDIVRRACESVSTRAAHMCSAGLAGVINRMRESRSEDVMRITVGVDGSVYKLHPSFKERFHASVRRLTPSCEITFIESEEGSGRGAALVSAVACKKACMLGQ
Assay: Glucokinase in vitro assay (G6PDH-coupled, NADH generation, OD340)
Type: biochemical
Settings: 30° C., 5 mM D-glucose, 10% dimethylsulfoxide
For each record, write down the corresponding SC1.5 (concentration of activator that produced a 50% increase in the activity of GK).
Give just the numeric value; µM need not be written.

Suppose we examine the compound CSCC[C@@H](C(=O)Nc1cnc([C@H](O)CO)cn1)N1Cc2c(cccc2C(F)(F)F)C1=O [Example 22] ; what SC1.5 (concentration of activator that produced a 50% increase in the activity of GK) value has been reported? 14.914

Same read-out for CC(C)OCCn1ccc(NC(=O)[C@H](CC2CCCC2)N2Cc3ccccc3C2=O)n1 [Example 11] ? 2.091

Can you handle CC(C)C[C@@H](C(=O)Nc1cnccn1)N1Cc2c(cccc2C(F)(F)F)C1=O [Example 23] next? 1.422

Same again, this time with COC(C)(C)Cn1ccc(NC(=O)[C@H](CC2CCCC2)N2Cc3c(cccc3C(F)(F)F)C2=O)n1 [Example 7] 0.032
